system: SF-295; experiment: NCI tumour cell line growth inhibition, 48 h
Activity calls are given as the source filed them. Cut-off read from the data, not from the text of the source: active = GI50 up to about 1.1 µM and inactive = higher. *1 amine or outer side, *2 acyl side, *3 side chain or, on linkers, in order; H or OH if unused. Where a SMILES comes first, the peptide text is derived from it. Bridges are numbered along the chain shown (N, C = ends). [ ]: non-standard residue; d: D form. The star is where a group is joined. X56 = CC(C)C(C)C(C(=O)[*:2])N(C)[*:1]; Picolinoyl(3-OH) = O=C(c1ncccc1O)*; NMePhg = CN[CH](C(=O)O)c1ccccc1; Hyp = O=C(O)[CH]1C[CH](O)CN1; Sar = CNCC(=O)O
Reported GI50 values for the following compounds.
assay endpoint: GI50

compound	system	measured
C(=N\c1ccc(-c2cc(-c3ccccc3)nc3ccc4ccccc4c23)cc1)/c1ccccc1	SF-295	10.9 µM (inactive)
COC(=O)C1(C)OC(C)=NC1(C(=O)OC)C(=O)OC (stereo unspecified)	SF-295	> 100 µM (inactive)
CC1=CCC2(C#N)CCC1C2O (stereo unspecified)	SF-295	> 100 µM (inactive)
CC(C)CC1NC(=O)C(NC(=O)c2ncccc2O)C(C)OC(=O)C(c2ccccc2)N(C)C(=O)C(C)NC(=O)C(C(C)C(C)C)N(C)C(=O)CN(C)C(=O)C2CC(O)CN2C1=O (stereo unspecified) ({Picolinoyl(3-OH)}-TL[Hyp][Sar][X56]A[NMePhg]; ester 1-C; configuration not given here)	SF-295	85.7 µM (inactive)
CCCc1cc(-c2ccc(-c3cc(CCC)c(C=O)[nH]3)s2)[nH]c1C=O	SF-295	11.9 µM (inactive)
COC(=O)C(=O)C(C#N)c1nc2ccccc2s1 (stereo unspecified)	SF-295	> 100 µM (inactive)
